Target: recombinant human MASP2 active protease (amino acids 297-686, C-terminal His Tag) (human, UniProt O00187 297-686)
Sequence (O00187 other isoform, or with tags, fused parts or gaps limits assumed): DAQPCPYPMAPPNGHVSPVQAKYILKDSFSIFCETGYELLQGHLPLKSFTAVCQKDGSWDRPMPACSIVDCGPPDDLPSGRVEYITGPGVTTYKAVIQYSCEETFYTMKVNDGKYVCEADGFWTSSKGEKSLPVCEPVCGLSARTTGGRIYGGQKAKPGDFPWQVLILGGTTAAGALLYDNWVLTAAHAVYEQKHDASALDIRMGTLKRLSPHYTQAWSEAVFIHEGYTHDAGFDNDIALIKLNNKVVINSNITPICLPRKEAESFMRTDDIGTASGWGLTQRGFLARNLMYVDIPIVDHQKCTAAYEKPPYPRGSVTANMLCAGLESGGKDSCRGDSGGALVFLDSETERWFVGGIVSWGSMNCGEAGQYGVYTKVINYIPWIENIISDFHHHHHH
Experiment: cell-based or functional assay
Numbered stars: 1 amine (or outer) side, 2 acyl side, 3 side chain; on linkers, the order of the positions; unused ones are H or OH. Bridge positions count the residues as written; N and C are the ends. Square brackets hold non-standard residues; d marks the D form. Ends that are not written are not given here. * marks the point of attachment. TTDS = 1,13-diamino-4,7,10-trioxatridecan-succinamic acid, O=C(CCC(=O)[*:2])NCCCOCCOCCOCCCN[*:1]; X4 = (1S,3R)‑3‑(Amino)cyclopentanecarboxylic acid, O=C([C@H]1CC[C@@H](N[*:1])C1)[*:2]; Oic = O=C(O)[C@@H]1C[C@@H]2CCCC[C@@H]2N1; Cyclopropanecarbonyl = O=C(C1CC1)*; tBuAla = CC(C)(C)C[C@H](N)C(=O)O; Gly(cBu) = N[C@H](C(=O)O)C1CCC1; Pen = CC(C)(S)[C@H](N)C(=O)O; Phg = N[C@H](C(=O)O)c1ccccc1; Tranexamic = tranexamic acid; NMeC = CN[C@@H](CS)C(=O)O; βAla = NCCC(=O)O; Sar = CNCC(=O)O
Parameter: human MASP2 IC50. Scope: all listed entries.
Write the figure, then the unit, nothing else.

- binder: "[Sar]ICSRSLPPIC[Phg]PD-OH (disulfide 3-11; N-terminus assumed; SMILES CC[C@H](C)[C@H](NC(=O)CNC)C(=O)N[C@H]1CSSC[C@@H](C(=O)N[C@H](C(=O)N2CCC[C@H]2C(=O)N[C@@H](CC(=O)O)C(=O)O)c2ccccc2)NC(=O)[C@H]([C@@H](C)CC)NC(=O)[C@@H]2CCCN2C(=O)[C@@H]2CCCN2C(=O)[C@H](CC(C)C)NC(=O)[C@H](CO)NC(=O)[C@H](CCCNC(=N)N)NC(=O)[C@H](CO)NC1=O) [Example 325: ((N-Me)G)-IC+SRSLPPIC+(Phg)-PD-OH]"
  human MASP2 IC50: "0.45 µM"
- binder: "[Sar]I[Pen]SRSLPPICIPD-OH (disulfide 3-11; N-terminus assumed; SMILES CC[C@H](C)[C@H](NC(=O)CNC)C(=O)N[C@@H]1C(=O)N[C@@H](CO)C(=O)N[C@@H](CCCNC(=N)N)C(=O)N[C@@H](CO)C(=O)N[C@@H](CC(C)C)C(=O)N2CCC[C@H]2C(=O)N2CCC[C@H]2C(=O)N[C@@H]([C@@H](C)CC)C(=O)N[C@H](C(=O)N[C@H](C(=O)N2CCC[C@H]2C(=O)N[C@@H](CC(=O)O)C(=O)O)[C@@H](C)CC)CSSC1(C)C) [Example 402: ((N-Me)G)-I-(Pen)+SRSLPPIC+IPD-OH]"
  human MASP2 IC50: "2.1 µM"
- binder: "ICSRS[tBuAla]PPI[Pen]I-NH2 (disulfide 2-10; N-terminus assumed; SMILES CC[C@H](C)[C@H](N)C(=O)N[C@H]1CSSC(C)(C)[C@@H](C(=O)N[C@H](C(N)=O)[C@@H](C)CC)NC(=O)[C@H]([C@@H](C)CC)NC(=O)[C@@H]2CCCN2C(=O)[C@@H]2CCCN2C(=O)[C@H](CC(C)(C)C)NC(=O)[C@H](CO)NC(=O)[C@H](CCCNC(=N)N)NC(=O)[C@H](CO)NC1=O) [Example 345: IC+SRS-((tBu)A)-PPI-(Pen)+I-NH2]"
  human MASP2 IC50: "0.39 µM"
- binder: "[βAla]ICSRSLPPICIPD-OH (disulfide 3-11; N-terminus assumed; SMILES CC[C@H](C)[C@H](NC(=O)CCN)C(=O)N[C@H]1CSSC[C@@H](C(=O)N[C@H](C(=O)N2CCC[C@H]2C(=O)N[C@@H](CC(=O)O)C(=O)O)[C@@H](C)CC)NC(=O)[C@H]([C@@H](C)CC)NC(=O)[C@@H]2CCCN2C(=O)[C@@H]2CCCN2C(=O)[C@H](CC(C)C)NC(=O)[C@H](CO)NC(=O)[C@H](CCCNC(=N)N)NC(=O)[C@H](CO)NC1=O) [Example 306: (beta-A)-IC+SRSLPPIC+IPD-OH]"
  human MASP2 IC50: "0.45 µM"
- binder: "AICSRSLPP[Gly(cBu)]CIPD-NH2 (disulfide 3-11; N-terminus assumed; SMILES CC[C@H](C)[C@H](NC(=O)[C@H](C)N)C(=O)N[C@H]1CSSC[C@@H](C(=O)N[C@H](C(=O)N2CCC[C@H]2C(=O)N[C@@H](CC(=O)O)C(N)=O)[C@@H](C)CC)NC(=O)[C@H](C2CCC2)NC(=O)[C@@H]2CCCN2C(=O)[C@@H]2CCCN2C(=O)[C@H](CC(C)C)NC(=O)[C@H](CO)NC(=O)[C@H](CCCNC(=N)N)NC(=O)[C@H](CO)NC1=O) [Example 389: AIC+SRSLPP-(Cyclobutylglycine)-C+IPD-NH2]"
  human MASP2 IC50: "0.33 µM"
- binder: "Cyclopropanecarbonyl-ICSRS[tBuAla]PPI[NMeC]I-NH2 (disulfide 2-10; SMILES CC[C@H](C)[C@H](NC(=O)[C@@H]1CSSC[C@H](NC(=O)[C@@H](NC(=O)C2CC2)[C@@H](C)CC)C(=O)N[C@@H](CO)C(=O)N[C@@H](CCCNC(=N)N)C(=O)N[C@@H](CO)C(=O)N[C@@H](CC(C)(C)C)C(=O)N2CCC[C@H]2C(=O)N2CCC[C@H]2C(=O)N[C@@H]([C@@H](C)CC)C(=O)N1C)C(N)=O) [Example 353: (Cyclopropanecarboxylic)-IC+SRS-((tBu)A)-PPI-((N-Me)C)+I-NH2]"
  human MASP2 IC50: "0.05 µM"
- binder: "[tBuAla]GICSRSLP[Oic]I[Pen]IP-NH2 (disulfide 4-12; N-terminus assumed; SMILES CC[C@H](C)[C@H](NC(=O)CNC(=O)[C@@H](N)CC(C)(C)C)C(=O)N[C@H]1CSSC(C)(C)[C@@H](C(=O)N[C@H](C(=O)N2CCC[C@H]2C(N)=O)[C@@H](C)CC)NC(=O)[C@H]([C@@H](C)CC)NC(=O)[C@@H]2C[C@@H]3CCCC[C@@H]3N2C(=O)[C@@H]2CCCN2C(=O)[C@H](CC(C)C)NC(=O)[C@H](CO)NC(=O)[C@H](CCCNC(=N)N)NC(=O)[C@H](CO)NC1=O) [Example 322: ((tBu)A)-GIC+SRSLP-(Oic)-I-(Pen)+IP-NH2]"
  human MASP2 IC50: "0.15 µM"
- binder: "[Sar]ICSRSLP[Oic]I[Pen]IP[X4]-OH (disulfide 3-11; N-terminus assumed; SMILES CC[C@H](C)[C@H](NC(=O)CNC)C(=O)N[C@H]1CSSC(C)(C)[C@@H](C(=O)N[C@H](C(=O)N2CCC[C@H]2C(=O)N[C@@H]2CC[C@H](C(=O)O)C2)[C@@H](C)CC)NC(=O)[C@H]([C@@H](C)CC)NC(=O)[C@@H]2C[C@@H]3CCCC[C@@H]3N2C(=O)[C@@H]2CCCN2C(=O)[C@H](CC(C)C)NC(=O)[C@H](CO)NC(=O)[C@H](CCCNC(=N)N)NC(=O)[C@H](CO)NC1=O) [Example 452: ((N-Me)G)-IC+SRSLP-(Oic)-I-(Pen)+IP-((1S,3R)-3-(Amino)cyclopentanecarboxylic acid)-OH]"
  human MASP2 IC50: "0.1 µM"

Let us examine a further case.
# human MASP2 IC50 of [Tranexamic]ICSRS[tBuAla]PPI[Pen]IP[TTDS]-NH2 (disulfide 3-11) [Example 429: (Tranexamic)-IC+SRS-((tBu)A)-PPI-(Pen)+IP-(TTDS)-NH2] = 0.012 µM
